The reported measurements were obtained from ChEMBL document CHEMBL3044930.

Consider the following compounds; for each one, report its pIC50.
Test system: Entamoeba histolytica
Assay: Antiamoebic activity against Entamoeba histolytica HM-1:IMSS after 72 hr by eosin stain-based spectrophotometric analysis
Assay type: functional, organism-based
In plain terms, pIC50 is the concentration in mol/L turned into minus its base-10 logarithm.

Prompt line: Entry S=c1oc(-c2ccncc2)nn1CN1CCN(Cc2ccccc2)CC1 has what pIC50?
Response line: 5.47

Prompt line: Given S=c1oc(-c2ccncc2)nn1CN1CCN(c2cccc(Cl)c2)CC1 , state its recorded pIC50.
Response line: 5.59

Prompt line: Can you share its pIC50? I mean this compound: S=c1oc(-c2ccncc2)nn1CN1CCN(c2ccccn2)CC1
Response line: 5.55

Prompt line: Find the recorded pIC50 belonging to CN1CCN(Cn2nc(-c3ccncc3)oc2=S)CC1 and report it.
Response line: 5.29

Prompt line: Please give the measured pIC50 for this compound: FC(F)(F)c1ccccc1N1CCN(Cn2nc(-c3ccncc3)oc2=S)CC1
Response line: 5.54

Prompt line: Given S=c1oc(-c2ccncc2)nn1CN1CCN(Cc2ccc3c(c2)OCO3)CC1 , state its recorded pIC50.
Response line: 5.44

Prompt line: Need pIC50 of COc1ccccc1N1CCN(Cn2nc(-c3ccncc3)oc2=S)CC1 , thanks.
Response line: 5.97

Prompt line: What measured pIC50 goes with Fc1ccc(N2CCN(Cn3nc(-c4ccncc4)oc3=S)CC2)cc1 ?
Response line: 6.61

Prompt line: State the recorded pIC50 for this entry: S=c1oc(-c2ccncc2)nn1CN1CCN(c2ccccc2)CC1
Response line: 5.46

Prompt line: What measured pIC50 goes with CCN1CCN(Cn2nc(-c3ccncc3)oc2=S)CC1 ?
Response line: 6.49
